# Tested on: Bloodstream form of Trypanosoma brucei, strain Lister 427
# ASSAY TEXT: Trypanosoma brucei growth inhibition assay (CellTiter-Glo, 24 h)
# Type: cell-based
# TEST PARAMETERS: Trypanosoma brucei; Table 3; read-out: T. brucei GI EC50
ENDPOINT: EC50 (nM)
Answers are plain numbers, in nM.

Some solved entries appear below for comparison.
- COMPOUND: "CCC(=O)CCCN1CCN(C(=O)Cc2c(C)[nH]c3ccc(OC)cc23)C(c2ncc(-c3cc4ccccc4nc3OC)[nH]2)C1 (centres unmarked)"
  ASSAY TARGET: "Bloodstream form of Trypanosoma brucei, strain Lister 427"
  EXPERIMENTAL VALUE: 34.2
- COMPOUND: "COc1nc2ccccc2cc1-c1cnc(C2CN(CC3CCOC3)CCN2C(=O)Cc2c(C)[nH]c3ccc(F)cc23)[nH]1 (centres unmarked)"
  ASSAY TARGET: "Bloodstream form of Trypanosoma brucei, strain Lister 427"
  EXPERIMENTAL VALUE: 35.1
- COMPOUND: "CCC(=O)CCCN1CCN(C(=O)Cc2c[nH]c3ccccc23)C(c2ncc(-c3ccc4ccccc4c3)[nH]2)C1 (centres unmarked)"
  ASSAY TARGET: "Bloodstream form of Trypanosoma brucei, strain Lister 427"
  EXPERIMENTAL VALUE: 489
- COMPOUND: "COc1nc2ccccc2cc1-c1cnc(C2CN(Cc3cnn(C)c3)CCN2C(=O)Cc2c(C)[nH]c3ccc(F)cc23)[nH]1 (centres unmarked)"
  ASSAY TARGET: "Bloodstream form of Trypanosoma brucei, strain Lister 427"
  EXPERIMENTAL VALUE: 172
- COMPOUND: "CCC(=O)CCCN1CCN(C(=O)Cc2c(C)[nH]c3ccc(OC)cc23)C(c2nnc(-c3ccc4ccccc4c3)o2)C1 (centres unmarked)"
  ASSAY TARGET: "Bloodstream form of Trypanosoma brucei, strain Lister 427"
  EXPERIMENTAL VALUE: 350
- COMPOUND: "COc1nc2ccccc2cc1-c1cnc(C2CN(CC3CCOC3)CCN2C(=O)Cn2c(C)nc3ccccc32)[nH]1 (centres unmarked)"
  ASSAY TARGET: "Bloodstream form of Trypanosoma brucei, strain Lister 427"
  EXPERIMENTAL VALUE: 163

Give me EC50 for each of these compounds, listed below.
1. COc1ccc2[nH]c(C)c(CC(=O)N3CCN(C)CC3c3ncc(-c4cc5ccccc5nc4OC)[nH]3)c2c1 (centres unmarked)
2. COc1nc2ccccc2cc1-c1cnc(C2CN(C3CCOCC3)CCN2C(=O)Cc2c(C)[nH]c3ccc(F)cc23)[nH]1 (centres unmarked)

1. 139
2. 117

---

I'd be grateful if you could share measured pEC50 for these entries.
# Tested on: Bloodstream form of Trypanosoma brucei, strain Lister 427
# ASSAY TEXT: Trypanosoma brucei growth inhibition assay (CellTiter-Glo, 24 h)
# Assay type: cell-based
# TEST PARAMETERS: Trypanosoma brucei; T. Brucei Growth Inibition Assay, class symbols; read-out: T. Brucei GI EC50
pEC50: −log10 of the molar value.

Some solved cases for reference:
- COMPOUND: "COc1ccc2nc(C)n(CC(=O)N3CCN(CC4CCOC4)C[C@H]3c3ncc(-c4ccc5ncccc5c4)[nH]3)c2c1 (stereo partly shown)"
  ASSAY TARGET: "Bloodstream form of Trypanosoma brucei, strain Lister 427"
  pEC50: "5.30 to 6.00"
- COMPOUND: "COc1nc2ccccc2cc1-c1cnc([C@@H]2CN(Cc3noc(C)n3)CCN2C(=O)Cn2c(C(F)(F)F)nc3ccccc32)[nH]1"
  ASSAY TARGET: "Bloodstream form of Trypanosoma brucei, strain Lister 427"
  pEC50: "> 7.00"
- COMPOUND: "COc1ccc2nc(C(F)(F)F)n(CC(=O)N3CC[C@H](NC4CC(OC)C4)C[C@H]3c3ncc(-c4cc5ccccc5nc4OC)[nH]3)c2c1 (stereo partly shown)"
  ASSAY TARGET: "Bloodstream form of Trypanosoma brucei, strain Lister 427"
  pEC50: "> 7.00"

State recorded pEC50 for all listed compounds.
1. COc1ccc2cc(C)n(CC(=O)N3CCN(C)CCC3c3ncc(-c4cc5ccccc5nc4OC)[nH]3)c2c1 (stereo not shown)
2. COc1nc2ccccc2cc1-c1cnc([C@@H]2CN(Cc3ccccc3F)CCN2C(=O)Cn2c(C(F)(F)F)nc3ccccc32)[nH]1
3. COc1nc2ccccc2cc1-c1cnc(C2CN(CC3CC3)CCN2C(=O)CC2=C(C)NC3C=CC=CC23)[nH]1 (stereo not shown)

6.00 to 6.29
6.30 to 7.00
6.30 to 7.00

Enter recorded pEC50 with Bloodstream form of Trypanosoma brucei, strain Lister 427 for Cc1[nH]c2ccccc2c1CC(=O)N1CCN(CC2CCOC2)CC1c1ncc(-c2ccc3ccccc3c2)[nH]1 (stereo not shown) here.
> 7.00

---

# Test system: HUVEC cells
# ASSAY TEXT: HUVEC cytotoxicity assay (CellTiter Glo, 72 h)
# Assay type: cell-based
# TEST PARAMETERS: Homo sapiens, read-out: Cell Proliferation HUVEC IC50
Exercise: state measured IC50 for each of the compounds provided.
One number for each entry, in µM.

Examples with answers:
- COMPOUND: "CCC(=O)CCCN1CCN(C(=O)Cc2c[nH]c3ccccc23)C(c2ncc(-c3ccc4ccccc4c3)[nH]2)C1 (stereo not shown)"
  UNIT TAG: "µM"
  IC50: 9.97
- COMPOUND: "COc1ccc2[nH]c(C)c(CC(=O)N3CCN(CC4CC4)CC3c3ncc(-c4ccc5ccccc5c4)[nH]3)c2c1 (stereo not shown)"
  UNIT TAG: "µM"
  IC50: 8.06
- COMPOUND: "COc1nc2ccccc2cc1-c1cnc(C2CN(Cc3nccs3)CCN2C(=O)Cc2c(C)[nH]c3ccc(F)cc23)[nH]1 (stereo not shown)"
  UNIT TAG: "µM"
  IC50: 8.2
- COMPOUND: "CCC(=O)CCCN1CCN(C(=O)Cc2c(C)[nH]c3ccc(OC)cc23)C(c2ncc(-c3cc4ccccc4nc3OC)[nH]2)C1 (stereo not shown)"
  UNIT TAG: "µM"
  IC50: 21.4
- COMPOUND: "COc1ccc2[nH]c(C)c(CC(=O)N3CCN(CC4CCOC4)CC3c3ncc(-c4ccc5ccccc5c4)[nH]3)c2c1 (stereo not shown)"
  UNIT TAG: "µM"
  IC50: 18.7
- COMPOUND: "COc1ccc2[nH]c(C)c(CC(=O)N3CCN(CC4CCOC4)CC3c3ncc(-c4cc5ccccc5nc4OC)[nH]3)c2c1 (stereo not shown)"
  UNIT TAG: "µM"
  IC50: 23.2

Need IC50 for each of these compounds.
1. COc1nc2ccccc2cc1-c1cnc(C2CN(C3CCOCC3)CCN2C(=O)Cc2c(C)[nH]c3ccc(F)cc23)[nH]1 (stereo not shown)
2. COc1nc2ccccc2cc1-c1cnc(C2CN(CC3CCOC3)CCN2C(=O)Cc2c(C)[nH]c3ccc(F)cc23)[nH]1 (stereo not shown)
3. CCC(O)CCCN1CCN(C(=O)Cc2c(C)[nH]c3ccc(OC)cc23)C(c2ncc(-c3ccc4ccccc4c3)[nH]2)C1 (stereo not shown)
4. COc1ccc2[nH]c(C)c(CC(=O)N3CCN(C)CC3c3ncc(-c4ccc5ccccc5c4)[nH]3)c2c1 (stereo not shown)

1. 10.6
2. 9.63
3. 9.27
4. 21.8

Okay, here is my list. What is IC50 for each of these?
1. COc1nc2ccccc2cc1-c1cnc(C2CN(CC3CCOC3)CCN2C(=O)Cn2c(C(F)(F)F)nc3ccccc32)[nH]1 (stereo not shown)
2. COc1nc2ccccc2cc1-c1cnc(C2CN(Cc3cnn(C)c3)CCN2C(=O)Cc2c(C)[nH]c3ccc(F)cc23)[nH]1 (stereo not shown)

[14.1, 6.72]

---

Provide the reported pEC50 of each item.
# Tested on: Bloodstream form of Trypanosoma brucei, strain Lister 427
# ASSAY TEXT: Trypanosoma brucei growth inhibition assay (CellTiter-Glo, 24 h)
# Format: cell-based
# TEST PARAMETERS: Trypanosoma brucei; T. Brucei Growth Inibition Assay, class symbols; read-out: T. Brucei GI EC50
# Protocol: […] After an incubation period of 24 hours at 37° C., each well is added 15 μl of CellTiter-Glo® Reagent (Promega) and incubated at room temperature. 5-10 min post incubation, the plate is read using a luminometer (ViewLux®). […]
pEC50: −log10 of the molar value.

- MOLECULE: "COc1ccc2nc(C(F)(F)F)n(CC(=O)N3CCN(Cc4cn[nH]c4)CCC3c3ncc(-c4cc5ccccc5nc4OC)[nH]3)c2c1 (stereo not shown)"
  pEC50: "6.30 to 7.00"
- MOLECULE: "COc1nc2ccccc2cc1-c1cnc([C@@H]2CN(C3CCS(=O)(=O)CC3)CCN2C(=O)Cn2c(C(F)(F)F)nc3ccccc32)[nH]1"
  pEC50: "> 7.00"
- MOLECULE: "CCCCCCN1CCN(C(=O)Cc2c(C)[nH]c3ccccc23)C(c2ncc(-c3ccc4ccccc4c3)[nH]2)C1 (stereo not shown)"
  pEC50: "6.00 to 6.29"
- MOLECULE: "CN1CCN(C(=O)Cc2cn(C)c3ccccc23)C(c2ncc(-c3ccc4ccccc4c3)[nH]2)C1 (stereo not shown)"
  pEC50: "5.30 to 6.00"
- MOLECULE: "COc1nc2ccccc2cc1-c1cnc([C@@H]2CN(CC3CCOC3)CCN2C(=O)Cn2c(C)nc3ccc(S(C)(=O)=O)cc32)[nH]1 (stereo partly shown)"
  pEC50: "6.30 to 7.00"

Please state, for each entry, its recorded pEC50.
1. COc1nc2ccccc2cc1-c1cnc(C2CS(=O)(=O)CCN2C(=O)Cn2c(C)nc3ccccc32)[nH]1 (stereo not shown)
2. CN1CCN(S(=O)(=O)Cc2ccccc2)C(c2ncc(-c3ccc4ccccc4c3)[nH]2)C1 (stereo not shown)

["5.30 to 6.00", "5.30 to 6.00"]

Go through the list and state pEC50 for each entry.
1. COc1nc2ccccc2cc1-c1cnc(C2CN(CC3CCOC3)CCN2C(=O)c2cc3cc(OCc4ccccc4)ccc3[nH]2)[nH]1 (stereo not shown)
2. Cn1cc(CC(=O)N2CCN(CC3CC3)CC2c2ncc(-c3ccc4ccccc4c3)[nH]2)c2ccccc21 (stereo not shown)
3. COc1ccc2[nH]c(C)c(CC(=O)N3CCN(C)CC3c3ncc(-c4cc5ccccc5nc4OC)[nH]3)c2c1 (stereo not shown)
4. COc1ccc2nc(C(F)(F)F)n(CC(=O)N3CCN(Cc4ccn(C)n4)CC[C@@H]3c3ncc(-c4cc5ccccc5nc4OC)[nH]3)c2c1
5. COc1nc2ccccc2cc1-c1cnc(C2CS(=O)(=O)CCN2C(=O)Cn2nc(C)c3ccccc3c2=O)[nH]1 (stereo not shown)
6. COc1ccc2nc(C(F)(F)F)n(CC(=O)N3CCCCC3c3ncc(-c4cc5ccccc5nc4OC)[nH]3)c2c1 (stereo not shown)
7. COc1nc2ccccc2cc1-c1cnc(C2CN(CC3CCOC3)CCN2C(=O)Cn2c(C)nc3ccc(F)cc32)[nH]1 (stereo not shown)
8. COc1nc2ccccc2cc1-c1cnc([C@@H]2CN(Cc3cnccn3)CCN2C(=O)Cn2c(C(F)(F)F)nc3ccccc32)[nH]1

5.30 to 6.00
5.30 to 6.00
6.30 to 7.00
5.30 to 6.00
5.30 to 6.00
> 7.00
6.30 to 7.00
> 7.00

# per-item lookup of pEC50; items listed below
1. CCC(=O)CCCN1CCN(C(=O)C2CCN(C)CC2)C(c2ncc(-c3ccc4ccccc4c3)[nH]2)C1 (stereo not shown)
2. COc1nc2ccccc2cc1-c1cnc([C@@H]2CN(CC3CCOC3)CCN2C(=O)Cn2c(C3CCC3)nc3ccccc32)[nH]1 (stereo partly shown)
3. COc1ccc2nc(C(F)(F)F)n(CC(=O)N3CCN(CCc4cnoc4)C[C@H]3c3ncc(-c4cc5ccccc5nc4OC)[nH]3)c2c1
4. COc1ccc2nc(C)n(CC(=O)N3CCN(C[C@@H]4CCOC4)CC3c3ncc(-c4ccc(-c5ccccc5)nc4OC)[nH]3)c2c1 (stereo partly shown)

["5.30 to 6.00", "6.30 to 7.00", "> 7.00", "5.30 to 6.00"]

Provide each entry's pEC50 from the list below.
1. COc1ccc2c(c1)C(CC(=O)N1CCN(CC3CCOC3)CC1c1ncc(-c3cc4ccccc4nc3OC)[nH]1)C(=O)N2 (stereo not shown)
2. COc1ccc2nc(C(F)(F)F)n(CC(=O)N3CC[C@H](NC(C)C)C[C@H]3c3ncc(-c4cc5ccccc5nc4OC)[nH]3)c2c1
3. COc1nc2ccccc2cc1-c1cnc(C2CN(Cc3cocn3)CCN2C(=O)Cc2c(C)[nH]c3ccc(F)cc23)[nH]1 (stereo not shown)
4. Cn1cc(CC(=O)N2CCN(CC3CCOC3)CC2c2ncc(-c3ccc4ccccc4c3)[nH]2)c2ccccc21 (stereo not shown)
5. COc1ccc2nc(C(F)(F)F)n(CC(=O)N3CCN(C4CCOCC4)CCC3c3ncc(-c4cc5ccccc5nc4OC)[nH]3)c2c1 (stereo not shown)
6. CN1CCN(C(=O)CCS(=O)(=O)c2ccccc2)C(c2ncc(-c3ccc4ccccc4c3)[nH]2)C1 (stereo not shown)
7. COc1nc2ccccc2cc1-c1cnc(C2CN(C(C)C)CCN2C(=O)Cc2ccccc2)[nH]1 (stereo not shown)
8. COc1ccc2nc(C)n(CC(=O)N3CCN(CC4CCOC4)C[C@H]3c3ncc(-c4cnc5ccccc5c4)[nH]3)c2c1 (stereo partly shown)

["5.30 to 6.00", "> 7.00", "6.30 to 7.00", "6.30 to 7.00", "> 7.00", "5.30 to 6.00", "5.30 to 6.00", "6.00 to 6.29"]

// data source = patent US10815222B2
